molecular target: human ether-à-go-go-related gene (hERG) potassium channel (human); assay: primary screen, population patch clamp on CHO cells stably expressing hERG; higher = less effect of the substance;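 further: peak tail current of the secondary pulse compared with the same well before compound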
Hit rate of the full screen: of about 310,000 compounds, about 14,000 (4.5%) showed an effect of 50% or more. Effects have a minus sign here. Only a selection was taken, and strong results are over-represented in it overall.
# hERG current change (%, negative = inhibition) at 10uM annotations
quantity: hERG current change (%, negative = inhibition) at 10uM

- O=C(NCCCN1CCOCC1)c1onc(CSc2ccncc2)c1C(=O)NCCCN1CCOCC1: -5.25%
- C=CCNc1nc(-c2c(C)nc3sccn23)cs1: -10.1%
- Cc1ccccc1-n1c(-c2ccoc2)nc2ccccc2c1=O: 6.09%
- C=C1c2cc(CC)ccc2NC(=O)N1c1ccc(C)cc1: 8.71%
- CC(=O)c1cccc(CN2CCC(n3nccc3NC(=O)CCc3ccccc3)CC2)c1: -25.1%
- CCOc1cc(Br)ccc1S(=O)(=O)NCc1ccccc1: -30.3%
- COc1ccc(CN2CCN(Cc3cc4ccccc4o3)CC2CCO)c(F)c1 (stereo not drawn): -60.9%
- Cc1cc(C)c2c(=O)[nH]n(C3CCCCCC3)c2n1: 23.5%
- COc1ccc(CN2CCN(C3CCSCC3)CC2CCO)c(C)c1C (stereo not drawn): -51.1%
- CCOc1ccc(CN2CCN(C3CCC3)CC2CCO)cc1 (stereo not drawn): -19.2%
- COCCC(=O)N1CCC(n2nccc2NC(=O)CCc2ccccc2)CC1: 14.2%
- CC(C)C(=O)N1CCC(n2nccc2NC(=O)CCc2ccccc2)CC1: 18.7%
- Cc1ccccc1NC(=O)c1c(C)[nH]c(=S)c(C#N)c1-c1ccc(Cl)cc1: 21.1%
- CCCOc1ccc(C2NC(=S)NC(c3ccccc3)=C2C(=O)Nc2ccc(C)cc2)cc1OC (stereo not drawn): 0.514%
- COc1cc(CC(=O)N2CCC(n3nccc3NC(=O)C3CC3)CC2)cc(OC)c1OC: 12.8%
- COc1cccc(CN2CCN(Cc3cc4ccccc4o3)CC2CCO)c1 (stereo not drawn): -10.7%
- COc1ccc2cc1Oc1ccc(cc1)CC1c3c(cc(OC)c4c3Oc3cc5c(cc3O4)CCNC5C2)CCN1C (stereo not drawn): 0.681%
- COc1ccccc1NCCC(=O)OCC(=O)NCc1ccco1: 23.7%
- COc1cccc(C(=O)NNC(=O)c2ccccc2-n2cccc2)c1: 34.4%
- CN(C)CCCNC(=O)c1ccc(Cl)c(S(=O)(=O)N(C)c2ccccc2)c1.Cl: -35%
- Cc1ccc(S(=O)(=O)N(C)CC(=O)NCCCn2ccnc2)cc1: 9.92%

---

target: human ether-à-go-go-related gene (hERG) potassium channel (human); assay: primary screen, population patch clamp on CHO cells stably expressing hERG; higher = less effect of the substance;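 further: peak tail current of the secondary pulse compared with the same well before compound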
About 14,000 (4.5%) of roughly 310,000 compounds showed an effect of 50% or more. The effect is printed as a negative number. Only a selection was taken, and strong results are over-represented in it overall.
# hERG current change (%, negative = inhibition) at 10uM annotations
quantity: hERG current change (%, negative = inhibition) at 10uM (%)

- CCCn1c(SCC(=O)NC2CCCCC2)nnc1-c1ccncc1: 4.24
- O=C(c1ccc(COc2ccccc2Cl)o1)N1N=C(C(F)F)CC1(O)C(F)F (stereo not drawn): 17.1
- COC(=O)C1=C(c2ccc(F)cc2F)C[C@@H]2CC[C@H]1N2C(=O)NC1Cc2ccccc2C1: -16.9
- CC1CC(OCC(O)CN2CCCCC2C)CC(C)(C)C1.Cl (stereo not drawn): -25.8
- CC1CCCCN1CC(O)COCCC12CC3CC(CC(C3)C1)C2.Cl (stereo not drawn): -63.6
- O=C(C1CC(=O)N(c2ccc(F)cc2)C1)N1CCN(c2ccccc2)CC1 (stereo not drawn): -58.3
- COc1ccc(/C=N/NC(=O)c2cccc([N+](=O)[O-])c2)cc1OS(=O)(=O)c1ccc(C)cc1: -16.1
- NCC(O)COCCC12CC3CC(CC(C3)C1)C2 (stereo not drawn): -1.48
- CC1CCCCN1CC(O)COCc1ccccc1.Cl (stereo not drawn): 5.66
- CC1(C)Cc2cccc(OCC(=O)N3CCN(S(=O)(=O)c4ccccc4F)CC3)c2O1: -14.6
- COCc1cc(=O)n2[nH]cc(-c3ccccc3)c2n1: 9.45
- CN(C)c1ccc(/C=N/NC(=O)CCC(=O)NCc2ccccc2)cc1: 11.3
- CC(C)(C)OC(=O)CNC(=O)c1[nH]cnc1C(=O)Nc1ccc(CNC(=O)OC(C)(C)C)cc1: -0.221
- CCOC(=O)c1c(S(=O)(=O)NCC(=O)Nc2ccc(F)cc2)c(C)n(C)c1C: 14.5
- Cl.OC(COCCC12CC3CC(CC(C3)C1)C2)CN1CCCC1 (stereo not drawn): -30.3
- CC1CCC(C(C)C)C(OCC(O)CNC(C)c2ccccc2)C1.Cl (stereo not drawn): 0.875
- O=C(C1CC(=O)N(c2ccc(F)cc2)C1)N1CCCCC1 (stereo not drawn): -0.378
- O=C(C1CC(=O)N(c2ccccc2)C1)N1CCN(c2ccccc2)CC1 (stereo not drawn): -29
- COc1ccccc1N(CC(=O)NCC1CCCO1)C(=O)CNS(=O)(=O)c1ccccc1 (stereo not drawn): -0.369
- COc1ccc(C(=O)Nc2ccccc2C(=O)N2CCCCCC2)cc1OC: -10.5
- O=C(C1CC(=O)N(c2ccccc2)C1)N1CCN(c2ccc(F)cc2)CC1 (stereo not drawn): -56.7

---

# hERG current change (%, negative = inhibition) at 10uM annotations
target: human ether-à-go-go-related gene (hERG) potassium channel (human, UniProt Q12809); assay: primary screen, population patch clamp on CHO cells stably expressing hERG; higher = less effect of the substance;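 further: peak tail current of the secondary pulse compared with the same well before compound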
Sequence (Q12809 whole entry, looked up): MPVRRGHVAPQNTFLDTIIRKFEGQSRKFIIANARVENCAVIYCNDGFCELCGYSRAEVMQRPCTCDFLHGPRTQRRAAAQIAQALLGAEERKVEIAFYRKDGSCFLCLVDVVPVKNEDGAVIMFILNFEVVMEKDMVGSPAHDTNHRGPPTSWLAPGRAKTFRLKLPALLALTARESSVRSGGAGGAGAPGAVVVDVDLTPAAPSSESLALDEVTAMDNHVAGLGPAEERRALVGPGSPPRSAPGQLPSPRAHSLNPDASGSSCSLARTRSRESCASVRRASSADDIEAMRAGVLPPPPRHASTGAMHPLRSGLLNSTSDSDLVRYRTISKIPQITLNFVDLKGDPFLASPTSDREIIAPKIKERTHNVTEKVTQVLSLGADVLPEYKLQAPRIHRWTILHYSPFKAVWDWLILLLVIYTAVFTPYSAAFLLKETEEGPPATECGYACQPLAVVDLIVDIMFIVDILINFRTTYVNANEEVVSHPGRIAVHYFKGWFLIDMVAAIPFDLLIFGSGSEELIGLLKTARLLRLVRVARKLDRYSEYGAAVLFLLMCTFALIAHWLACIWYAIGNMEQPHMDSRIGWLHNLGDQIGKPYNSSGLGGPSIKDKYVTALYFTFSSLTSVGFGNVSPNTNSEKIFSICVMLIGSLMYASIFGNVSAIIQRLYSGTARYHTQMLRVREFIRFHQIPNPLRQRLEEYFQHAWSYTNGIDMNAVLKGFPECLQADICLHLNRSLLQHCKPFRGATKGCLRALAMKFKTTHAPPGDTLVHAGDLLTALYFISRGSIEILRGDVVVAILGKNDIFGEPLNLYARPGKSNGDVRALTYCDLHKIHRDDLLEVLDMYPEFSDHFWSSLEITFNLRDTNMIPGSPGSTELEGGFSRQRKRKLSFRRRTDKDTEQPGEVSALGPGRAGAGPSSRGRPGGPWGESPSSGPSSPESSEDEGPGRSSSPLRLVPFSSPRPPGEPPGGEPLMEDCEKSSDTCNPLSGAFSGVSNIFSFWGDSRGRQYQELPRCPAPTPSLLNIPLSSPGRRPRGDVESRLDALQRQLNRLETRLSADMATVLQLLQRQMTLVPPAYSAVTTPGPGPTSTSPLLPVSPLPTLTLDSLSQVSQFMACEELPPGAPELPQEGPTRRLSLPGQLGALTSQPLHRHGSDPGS
Among all 310,000 compounds or so, about 14,000 (4.5%) showed an effect of 50% or more. The effect is printed as a negative number. The entries come from a sample that favours strong results as a whole.
quantity: hERG current change (%, negative = inhibition) at 10uM (%)

* Cc1[nH]nc(Nc2ccc(O)cc2)c1[N+](=O)[O-] | 23.6
* CCOC(=O)c1c(NC(=O)CNC2CCCCC2)sc(C)c1C | 10.3
* O=c1c2ccc(Cl)cc2[nH]c(=S)n1CCCN1CCOCC1 | -22.6
* CCN(CC)CCn1c(=S)[nH]c2cc(C(=O)N3CC(C)CC(C)C3)ccc2c1=O (stereo not drawn) | -14.7
* Cc1c(C(=O)NNC(=O)c2ccncc2)oc2ccc(Br)cc12 | -68.5
* CCCn1nc(NC(=O)CC(C)C)c2cc3ccccc3nc21 | 12
* CSc1ccc(/C=C/C(=O)c2ccc(NC(=O)Cc3ccccc3)cc2)cc1 | -4.59
* COc1ccc(CNC(=O)CCSCc2cccc(Cl)c2)cc1 | -17
* CCO/C=C1/C(=O)N(CC)c2ccccc21 | -8.33
* COc1ccc(S(=O)(=O)CC(=O)c2cc3cccc(C)c3oc2=O)cc1 | 5.51
* Cc1c(C(=O)NNC(=O)c2ccccc2O)oc2ccc(Br)cc12 | 8.46
* CN(C)c1ccc(CN(Cc2ccco2)C(=O)c2ccco2)cc1 | -30.1
* NC(=O)CC(NC(=O)Cc1ccc(Cl)cc1)c1ccc(N2CCC(Cc3ccccc3)CC2)c([N+](=O)[O-])c1 (stereo not drawn) | 17.7
* CC(/C=C/c1ccccc1)=N\NC(=O)CNC(=O)c1ccccc1Cl | 7.15
* O=C(NCc1ccccn1)c1c(Cl)cccc1Cl | 2.78
* CCN(CC)CCCn1c(=S)[nH]c2cc(Cl)ccc2c1=O | -68.7
* CCOC(=O)c1ccc(N2Cc3ccccc3C2=NC(=O)c2cccc([N+](=O)[O-])c2)cc1 | 10.7
* CC1CC(=O)N(CC(=O)Nc2cccc(F)c2)c2ccccc2S1(=O)=O (stereo not drawn) | -4.3
* CC1=C(C(=O)OC(C)C)C(c2cncc(-c3ccc(F)cc3)c2)C(C#N)=C(N)O1 (stereo not drawn) | -28.6
* Cc1ccnc(SCC(=O)N2CCN(c3cccc(Cl)c3)CC2)n1 | -25.2
* CN1C(=O)S/C(=C/c2cccnc2)C1=O | -0.904

---

molecular target: human ether-à-go-go-related gene (hERG) potassium channel (human); assay: primary screen, population patch clamp on CHO cells stably expressing hERG; higher = less effect of the substance;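 further: peak tail current of the secondary pulse compared with the same well before compound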
The whole screen tested about 310,000 compounds, of which about 14,000 (4.5%) showed an effect of 50% or more. Effects have a minus sign here. What follows is part of a selection rich in strong results, with near analogues and random picks from the rest.
# hERG current change (%, negative = inhibition) at 10uM annotations
quantity: hERG current change (%, negative = inhibition) at 10uM (%)

* CCOC(=O)/C(C#N)=C/c1cccc([N+](=O)[O-])c1 | 25
* CCn1c(SCc2nc3ccccc3s2)nnc1-c1ccccc1 | -11
* COC(=O)c1cc(NC(=O)CCc2c(C)nc3ncnn3c2C)cc(C(=O)OC)c1 | -36.1
* CC(=O)c1cccc(NC(=S)N2CCCC2)c1 | 9.57
* O=C(/C=C/c1ccccc1[N+](=O)[O-])Nc1ccccc1 | 10.1
* COc1ccc(C)cc1NC(=O)CCNS(=O)(=O)c1cccc(C(F)(F)F)c1 | -27.6
* Cn1cncc1COC(=O)c1ccc(Cl)cc1 | 5.21
* CN1CCc2c(sc(NC(=O)C3CCCN3S(=O)(=O)c3ccc(Cl)s3)c2C(N)=O)C1.Cl (stereo not drawn) | -63.6
* COc1ccc(S(=O)(=O)N/N=C(/C)c2ccncc2)cc1OC | -1.27
* COc1ccc(-n2nnnc2SCc2nc3ccccc3s2)cc1 | -5.94
* CC(C)CNC(=S)NC(=O)c1ccc(Cl)cc1Cl | 3.88
* COc1cccc(-c2nnc(SCc3nc4ccccc4s3)n2C)c1 | -29
* Cc1nc2ccc(Br)cn2c1NC(C)(C)C | -20.9
* CN1CCc2c(sc(NC(=O)c3cc(Cl)sc3Cl)c2C(N)=O)C1.Cl | -59.8
* CS(=O)(=O)N1CCN(CC2CC3C=CC2C3)CC1.O=C(O)C(=O)O (stereo not drawn) | 5.01
* O=C(C1CCN(S(=O)(=O)c2ccccc2)CC1)N1CCC1 | 12.3
* CCN(CC(=O)Nc1ccc2c(c1)OCCO2)C(=O)/C=C/c1ccc(F)cc1 | -7.2
* CCOC(=O)N1CCC(Nc2c(NCCCN(CC)Cc3ccccc3)c(=O)c2=O)CC1 | 6.06
* COc1ccccc1C(=O)Nc1nc(N)n(-c2ccccc2)n1 | 13.8
* O=C(CN1CCN(S(=O)(=O)c2ccc(F)cc2)CC1)Nc1ccc2c(c1)OCCO2 | -10.9
* O=C(CNC(=O)Cc1cccc2ccccc12)NCc1ccccc1F | 14.8
